- tested_system: Cyclin-dependent kinase 1/cyclin B1 (Homo sapiens, UniProt P06493)
- Sequence (P06493 whole entry): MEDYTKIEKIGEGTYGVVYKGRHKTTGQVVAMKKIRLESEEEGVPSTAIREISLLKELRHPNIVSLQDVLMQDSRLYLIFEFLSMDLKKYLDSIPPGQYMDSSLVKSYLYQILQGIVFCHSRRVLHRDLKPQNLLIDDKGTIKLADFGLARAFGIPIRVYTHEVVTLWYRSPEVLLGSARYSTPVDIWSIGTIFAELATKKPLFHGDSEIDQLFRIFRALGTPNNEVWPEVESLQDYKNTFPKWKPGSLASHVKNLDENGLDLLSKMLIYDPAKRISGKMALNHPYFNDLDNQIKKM
- Sequence (P14635 whole entry, further chain): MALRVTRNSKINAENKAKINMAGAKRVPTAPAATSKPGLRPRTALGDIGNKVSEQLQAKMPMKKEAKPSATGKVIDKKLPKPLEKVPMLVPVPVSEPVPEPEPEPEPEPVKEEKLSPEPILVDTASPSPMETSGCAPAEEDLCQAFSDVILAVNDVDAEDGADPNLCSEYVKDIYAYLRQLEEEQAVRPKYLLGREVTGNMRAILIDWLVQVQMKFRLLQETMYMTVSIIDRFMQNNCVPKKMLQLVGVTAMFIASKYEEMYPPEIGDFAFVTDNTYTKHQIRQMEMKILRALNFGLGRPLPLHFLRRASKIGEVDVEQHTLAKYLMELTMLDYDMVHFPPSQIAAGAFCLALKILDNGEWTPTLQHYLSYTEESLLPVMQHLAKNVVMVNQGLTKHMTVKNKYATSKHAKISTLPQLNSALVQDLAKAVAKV
- protocol_text: Inhibition of CDK1/Cyclin B
quantity_name: Ki (µM)

Look over these answered cases.
smiles_code=Oc1cnc2oc3c4ccccc4c(O)cc3c2c1-c1ccccc1 unit_annotation=µM numeric_result=0.7
smiles_code=COc1cnc2oc3ccc(O)cc3c2c1-c1ccccc1 unit_annotation=µM numeric_result=5.3
smiles_code=Cc1cc2oc3ncc(OCc4ccccc4)c(-c4ccccc4)c3c2cc1O unit_annotation=µM numeric_result=1.3

[I] Oc1ccc2oc3ncc(OCc4ccccc4)c(-c4ccccc4)c3c2c1
[II] Oc1ccc2oc3ncc(O)c(-c4ccccc4)c3c2c1
[III] Oc1cc2c(oc3ncc(OCc4ccccc4)c(-c4ccccc4)c32)c2ccccc12
Enquiry: // sort entries: Ki, high to low Please express your ranking as an ordered list of the labels.
Return: I, III, II
